Attribution: PubChem BioAssay (NCI)

System: IGROV1 ovarian
Experiment: NCI tumour cell line growth inhibition, 48 h
Collected TGI values appear next to each entry.

compound: C1CN(c2nnc(N3CCC3)nn2)C1
target-desc: IGROV1 ovarian
TGI: > 100 µM

compound: COc1cc(Oc2nc3cc(F)c(F)cc3nc2-c2ccccc2)cc(OC)c1OC
target-desc: IGROV1 ovarian
TGI: > 100 µM

compound: COc1ccc2nc(C(=O)c3ccccc3)c(C)cc2c1
target-desc: IGROV1 ovarian
TGI: > 73.1 µM

###

System: BT-549 breast
Test: NCI tumour cell line growth inhibition, 48 h

compound: O=C(NCC(F)(F)F)Nc1cccc(-c2cnc3cc(-c4ccc(F)cc4)ccn23)c1
TGI: > 61 µM

compound: CC(CNC(N)=O)NC(N)=O (stereo not given)
TGI: > 100 µM

compound: COc1cc(C2C3=C(COC3=O)N(CCO)c3cc4c(cc32)OCCO4)cc(OC)c1OC (stereo not given)
TGI: > 11.8 µM

compound: NCCSCCC(=O)O
TGI: > 100 µM

compound: COC(NC(=O)Nc1ccccc1C)(C(F)(F)F)C(F)(F)F
TGI: > 100 µM

compound: CC(=O)OC[C@H]1On2nnnc2[C@H](OC(C)=O)[C@@H](OC(C)=O)[C@@H]1OC(C)=O
TGI: > 100 µM

compound: C#CCOC(=O)c1ccc(OC(C)=O)cc1
TGI: > 100 µM

compound: S=C1SC(=Nc2ccccc2)C(=Nc2ccccc2)N1c1ccc2ccccc2c1
TGI: > 100 µM

compound: Cc1c2cccc-2ccc2c3ccccc3n(C(=O)c3ccc(Cl)cc3)c12
TGI: > 100 µM

compound: CCN(CC)C(=O)CCN1CC1
TGI: > 10 µM
